Assay: Inhibition of gamma-secretase-mediated amyloid beta-42 production in diluted 2B7 conditioned media after 5 hrs
pIC50: −log10 of the molar value.
MEASUREMENT KIND: pIC50

[[record]]
mol = "CC(=O)O[C@@H]([C@H]1C[C@@H](C)[C@H]2[C@H](O1)C(=O)[C@@]1(C)[C@@H]3CC[C@H]4C(C)(C)[C@@H](O[C@@H]5OC[C@@H](O)[C@H](O)[C@H]5O)CC[C@@]45C[C@@]35CC[C@]21C)C(C)(C)O"
censoring_operator = "="
assay_value = 6.22

[[record]]
mol = "CCCN1CCO[C@@H](O[C@H]2CC[C@]34C[C@]35CC[C@]3(C)[C@@H]6[C@H](O[C@@H]([C@H](OC(C)=O)C(C)(C)O)C[C@H]6C)[C@H](O)[C@@]3(C)[C@@H]5CC[C@H]4C2(C)C)C1"
censoring_operator = "="
assay_value = 6.17

[[record]]
mol = "CC(=O)O[C@@H]([C@H]1C[C@@H](C)[C@H]2[C@H](O1)[C@H](O)[C@@]1(C)[C@@H]3CC[C@H]4C(C)(C)[C@@H](O[C@H]5CN(S(C)(=O)=O)CCO5)CC[C@@]45C[C@@]35CC[C@]21C)C(C)(C)O"
censoring_operator = "="
assay_value = 7.10

[[record]]
mol = "CC(=O)O[C@@H]([C@H]1C[C@@H](C)[C@H]2[C@H](O1)[C@H](O)[C@@]1(C)[C@@H]3CC[C@H]4C(C)(C)[C@@H](O[C@H]5CN(CC(=O)N(C)C)CCO5)CC[C@@]45C[C@@]35CC[C@]21C)C(C)(C)O"
censoring_operator = "="
assay_value = 6.85

[[record]]
mol = "C[C@@H]1C[C@H]([C@H](O)C(C)(C)O)O[C@H]2[C@H]1[C@@]1(C)CC[C@@]34C[C@@]35CC[C@H](O)C(C)(C)[C@@H]5CC[C@H]4[C@]1(C)[C@H]2O"
censoring_operator = "<"
assay_value = 5.00

[[record]]
mol = "CC(=O)O[C@@H]([C@H]1C[C@@H](C)[C@H]2[C@H](O1)[C@H](O)[C@@]1(C)[C@@H]3CC[C@H]4C(C)(C)[C@@H](O[C@H]5CN([C@@H]6CCNC6=O)CCO5)CC[C@@]45C[C@@]35CC[C@]21C)C(C)(C)O"
censoring_operator = "="
assay_value = 6.92

[[record]]
mol = "CC(=O)O[C@@H]([C@H]1C[C@@H](C)[C@H]2[C@H](O1)[C@H](O)[C@@]1(C)[C@@H]3CC[C@H]4C(C)(C)[C@@H](O[C@H]5CN(C(=O)c6ccno6)CCO5)CC[C@@]45C[C@@]35CC[C@]21C)C(C)(C)O"
censoring_operator = "="
assay_value = 7.15

[[record]]
mol = "CC(=O)O[C@@H]([C@H]1C[C@@H](C)[C@H]2[C@H](O1)[C@H](O)[C@@]1(C)[C@@H]3CC[C@H]4C(C)(C)[C@@H](O[C@H]5CN(CC(=O)O)CCO5)CC[C@@]45C[C@@]35CC[C@]21C)C(C)(C)O"
censoring_operator = "="
assay_value = 6.43

[[record]]
mol = "CC(=O)O[C@@H]([C@H]1C[C@@H](C)[C@H]2[C@H](O1)[C@H](O)[C@@]1(C)[C@@H]3CC[C@H]4C(C)(C)[C@@H](O[C@H]5CN(C6CCC6)CCO5)CC[C@@]45C[C@@]35CC[C@]21C)C(C)(C)O"
censoring_operator = "="
assay_value = 6.46

[[record]]
mol = "CC(=O)O[C@@H]([C@H]1C[C@@H](C)[C@H]2[C@H](O1)[C@H](O)[C@@]1(C)[C@@H]3CC[C@H]4C(C)(C)[C@@H](O[C@H]5CN(C6COC6)CCO5)CC[C@@]45C[C@@]35CC[C@]21C)C(C)(C)O"
censoring_operator = "="
assay_value = 6.77

[[record]]
mol = "CC(=O)O[C@@H]([C@H]1C[C@@H](C)[C@H]2[C@H](O1)[C@H](O)[C@@]1(C)[C@@H]3CC[C@H]4C(C)(C)[C@@H](O[C@H]5CN(CC(F)(F)F)CCO5)CC[C@@]45C[C@@]35CC[C@]21C)C(C)(C)O"
censoring_operator = "="
assay_value = 5.92

[[record]]
mol = "CC(=O)O[C@@H]([C@H]1C[C@@H](C)[C@H]2[C@H](O1)[C@H](O)[C@@]1(C)[C@@H]3CC[C@H]4C(C)(C)[C@@H](O[C@H]5CN(C(=O)C6(C)COC6)CCO5)CC[C@@]45C[C@@]35CC[C@]21C)C(C)(C)O"
censoring_operator = "="
assay_value = 7.10

[[record]]
mol = "C[C@@H]1C[C@H]([C@H](O)C(C)(C)O)O[C@H]2[C@H]1[C@@]1(C)CC[C@@]34C[C@@]35CC[C@H](O[C@@H]3OC[C@@H](O)[C@H](O)[C@H]3O)C(C)(C)[C@@H]5CC[C@H]4[C@]1(C)[C@H]2O"
censoring_operator = "="
assay_value = 5.51

